Hi there, I'd appreciate the recorded PBM binding z-score for every entry that follows.
# System: PPARg:RXRa 30nM:10nM, anti-RXR (NR concentration 30 nM, RXRa partner concentration 10 nM)
# protocol-details: PBM binding z-score (relative to random genomic background probes); higher = stronger binding; sequences stand for … in GC…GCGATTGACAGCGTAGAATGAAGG
Just the number.

*Q* Lab note: need PBM binding z-score for ACTCGGAAGACAAAGGTCAGAGCTACGCCAGTGA on PPARg:RXRa 30nM:10nM, anti-RXR (NR concentration 30 nM, RXRa partner concentration 10 nM), anyone have it?
*A* 2.83

*Q* Please provide the recorded PBM binding z-score for CAGACTAGGTCAAGAGGTCAAAGTCCGCTTCCCG , tested on PPARg:RXRa 30nM:10nM, anti-RXR (NR concentration 30 nM, RXRa partner concentration 10 nM).
*A* 5.99

*Q* Look up PBM binding z-score with PPARg:RXRa 30nM:10nM, anti-RXR (NR concentration 30 nM, RXRa partner concentration 10 nM) for this sequence: TCTATTAGTTGATAAGGGCAACCGAAACAGCGGA
*A* 3.81

*Q* Form field: PBM binding z-score recorded for CAAACTAGGCCACCGGAAGGTCAAAGTCCGCATG with PPARg:RXRa 30nM:10nM, anti-RXR (NR concentration 30 nM, RXRa partner concentration 10 nM) (enter value)
*A* 1.86

Values were extracted from the supplement of paper PMC6555819.
